Protein target, amino acids: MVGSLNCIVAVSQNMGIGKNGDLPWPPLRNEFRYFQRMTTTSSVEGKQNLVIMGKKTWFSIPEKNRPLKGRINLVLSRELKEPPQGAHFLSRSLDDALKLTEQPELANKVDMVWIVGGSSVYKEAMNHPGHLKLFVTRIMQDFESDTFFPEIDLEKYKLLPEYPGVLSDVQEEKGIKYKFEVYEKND
MEASURE_NAME: pIC50
Schema: pIC50 number; meaning minus log10 of the concentration expressed in molar units.

Input: Tell me the measured pIC50 of Nc1nc(N)c2nc(CNc3ccc(C(=O)NC(CCC(=O)Nc4cccc(C(=O)O)c4)C(=O)O)cc3)cnc2n1 (configuration not stated) , please.
Output: 7.49

Input: Tell me the measured pIC50 of CN(Cc1cnc2nc(N)nc(N)c2n1)c1ccc(C(=O)NC(CCC(=O)Nc2cccc(B(O)O)c2)C(=O)O)cc1 (configuration not stated) , please.
Output: 7.52
